# protocol_description: qHTS RealTime-Glo MT Cell Viability Assay in HEK293 cells - 16 hour (AID 1224872); further: nearly all actives have a fitted effect of over 50% in size
# test_conditions: RealTime-Glo luminescence; series mostly up to 76.8 µM
Inconclusive results are not listed. Calls of active or inactive are those of the source. The call rests on the fitted dose curve; in most records, active means well fitted cell-killing curve with a large enough effect in the repeat runs; inconclusive means weak or mixed curves, or effect the other way; inactive means flat fitted curve, though single readings scatter.
Outcome codes: Y = active, N = inactive

- compound: "CCN1CCCC1CNC(=O)c1cc(S(=O)(=O)CC)c(N)cc1OC (stereo unspecified)"
  label_value: "N"
- compound: "CCCCN(CCO)CCCC"
  label_value: "N"
- compound: "CN(C)c1ccc(C(=C2C=CC(=[N+](C)C)C=C2)c2ccccc2)cc1"
  label_value: "Y"
- compound: "Cc1ccc(S(=O)(=O)Oc2ccc(N=Nc3ccc(-c4ccc(N=Nc5c(O)ccc6cc(S(=O)(=O)O)cc(S(=O)(=O)O)c56)c(C)c4)cc3C)cc2)cc1"
  label_value: "N"
- compound: "CC(C)(c1ccccc1)c1ccc(Nc2ccc(C(C)(C)c3ccccc3)cc2)cc1"
  label_value: "N"
- compound: "C#CC(C)(CC)OC(=O)c1ccccc1C(=O)O (stereo unspecified)"
  label_value: "N"
- compound: "CCCCOCCOC(=O)c1ccccc1C(=O)OCCOCCCC"
  label_value: "N"
- compound: "c1cnc2cc3c(cc2n1)C1CNCC3C1"
  label_value: "N"
- compound: "[Cl][In]([Cl])[Cl]"
  label_value: "N"
- compound: "O"
  label_value: "N"
- compound: "c1ccc2c(c1)-c1cccc3c1c-2cc1ccccc13"
  label_value: "N"
- compound: "Oc1c(Cl)cc(Cl)c(Cl)c1Cc1c(O)c(Cl)cc(Cl)c1Cl"
  label_value: "N"
- compound: "O=S(=O)(O)c1ccc2nc(-c3ccccc3)[nH]c2c1"
  label_value: "N"
- compound: "NC12CC3CC(CC(C3)C1)C2"
  label_value: "N"
- compound: "c1ccc2n[nH]nc2c1"
  label_value: "N"
- compound: "C[N+]1([O-])CCOCC1"
  label_value: "N"

The origin of these recorded values is PubChem BioAssay (Tox21).
